Data credit: patent US20240425478A1

target: Cyclin Dependent Kinase 2/Cyclin E1 (CDK2-cycE1) (Homo sapiens); construct: purchased ProQinase 0050-0055-1; assay: CDK2-cycE1 TR-FRET (LANCE) enzyme assay; format: biochemical; conditions: Table Q, enzymatic assay; read-out: CDK2 Ki
Attribute Measured: pKi
One number for each entry, as −log10 of the molar value.

>>> recorded_value("CC(C)NC(=O)O[C@@H]1CC[C@H](c2cc(Nc3ccnc(C(F)(F)F)n3)n[nH]2)C1")
9.77

Query string: Please list pKi recorded for the molecule `Cc1cnc(Nc2cc([C@H]3CC[C@@H](OC(=O)NC(C)C)C3)[nH]n2)c(C)n1`
Result string: 9.04

###

biological target: Cyclin Dependent Kinase 2/Cyclin E1 (CDK2-cycE1) (Homo sapiens, UniProt P24941); construct: purchased ProQinase 0050-0055-1; assay: CDK2-cycE1 TR-FRET (LANCE) enzyme assay; type: biochemical; conditions: Table Q, fold selectivity, enzymatic
Threshold rule: FS CDK1/CDK2 greater than or equal to 20 is condition met; below that, condition not met.

Some solved cases for reference:
>>> discrete_label("Cc1cc(=O)n(C)cc1Nc1cc([C@H]2CC[C@@H](OC(=O)NC(C)C)C2)[nH]n1 [Example 2S]")
"condition not met"
>>> discrete_label("CC(C)NC(=O)O[C@@H]1CC[C@H](c2cc(Nc3cccn(C)c3=O)n[nH]2)C1 [Example 2BB]")
"condition met"
>>> discrete_label("CC(C)NC(=O)O[C@@H]1CC[C@H](c2cc(Nc3ccc(-n4cccn4)nc3)n[nH]2)C1 [Example 2D]")
"condition met"

Turning now to a further compound:
Query string: Form field: FS CDK1/CDK2 at least 20? Entry: CC(C)NC(=O)O[C@@H]1CC[C@H](c2cc(Nc3ccnc(N)n3)n[nH]2)C1 [Example 2G]
Result string: condition met

###

biological target: Cyclin Dependent Kinase 1/Cyclin A2 (CDK1-cycA2) (Homo sapiens, UniProt P06493); construct: purchased ProQinase 0134-0054-1; assay: CDK1-cycA2 TR-FRET (Lance) enzyme assay; assay type: biochemical; conditions: Table O, enzymatic assay
Sequence (P06493 whole entry): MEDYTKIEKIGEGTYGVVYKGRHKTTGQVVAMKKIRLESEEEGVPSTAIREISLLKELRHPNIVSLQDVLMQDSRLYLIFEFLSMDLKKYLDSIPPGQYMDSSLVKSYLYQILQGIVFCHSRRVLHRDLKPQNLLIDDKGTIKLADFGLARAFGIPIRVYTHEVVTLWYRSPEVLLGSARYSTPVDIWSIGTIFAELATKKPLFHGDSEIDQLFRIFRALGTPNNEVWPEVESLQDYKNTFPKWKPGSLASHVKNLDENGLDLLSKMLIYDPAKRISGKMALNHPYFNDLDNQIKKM
Sequence (P20248 whole entry partner): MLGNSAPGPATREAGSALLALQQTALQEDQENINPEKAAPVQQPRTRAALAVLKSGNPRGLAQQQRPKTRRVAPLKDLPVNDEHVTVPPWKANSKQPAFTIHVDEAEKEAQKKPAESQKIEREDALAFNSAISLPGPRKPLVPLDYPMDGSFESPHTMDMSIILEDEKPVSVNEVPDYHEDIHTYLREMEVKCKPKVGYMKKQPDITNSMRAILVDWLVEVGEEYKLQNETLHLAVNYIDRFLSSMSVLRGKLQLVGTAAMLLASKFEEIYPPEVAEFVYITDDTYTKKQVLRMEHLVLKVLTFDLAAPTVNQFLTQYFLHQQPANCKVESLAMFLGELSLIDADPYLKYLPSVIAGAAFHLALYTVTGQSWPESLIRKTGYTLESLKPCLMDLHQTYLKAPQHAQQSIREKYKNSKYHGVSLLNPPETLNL
Attribute Measured: Ki (µM)
Answers are plain numbers, in µM.

Reference set, count: 5
>>> recorded_value("CNC(=O)c1ccc(Nc2cc([C@H]3CC[C@@H](OC(=O)NC(C)(C)C)C3)[nH]n2)nc1 [Example 4E]")
0.075
>>> recorded_value("Cc1ncccc1Nc1cc([C@H]2CC[C@@H](OC(=O)NC3(C)COC3)C2)[nH]n1 [Example 8]")
0.16
>>> recorded_value("CC(C)NC(=O)O[C@@H]1CC[C@H](c2cc(Nc3ccnc(N)n3)n[nH]2)C1 [Example 2G]")
0.088
>>> recorded_value("CC(CC(F)(F)F)NC(=O)O[C@@H]1CC[C@H](c2cc(Nc3ccc(=O)n(C)n3)n[nH]2)C1 (stereo partly shown) [Example 6D]")
0.0036
>>> recorded_value("C[C@@H](NC(=O)O[C@@H]1CC[C@H](c2cc(Nc3cccnn3)n[nH]2)C1)C(F)(F)F (single isomer, unassigned) [Example 5B]")
0.31

# batch: return Ki for each of the 2 compounds below
1. CC(C)NC(=O)O[C@@H]1CC[C@H](c2cc(Nc3cccn(C)c3=O)n[nH]2)C1 [Example 2BB]
2. Cc1nccnc1Nc1cc([C@H]2CC[C@@H](OC(=O)NC3(C)COC3)C2)[nH]n1 [Example 8B]

Result string:
1: 32; 2: 0.052
